PDI listing for selected compounds.
# PROTOCOL_SUMMARY: Hydrodynamic diameter and colloidal stability of aggregates by dynamic light scattering
# Format: physicochemical
# APPLIED_CONDITIONS: 2.5 μM in PBS; sd^2/mean size^2
Hey, just send me the number, nothing else.

COMPOUND: CC1=C(/C=C/C(C)=C/C=C/C(C)=C/C=C/C=C(C)/C=C/C=C(C)/C=C/C2=C(C)C[C@@H](OC(=O)CCC(=O)O)CC2(C)C)C(C)(C)C[C@H](OC(=O)CCC(=O)O)C1 [Compound 7, Zeaxanthin bissuccinate]
PDI: 0.0202
--
COMPOUND: COc1ccc2[nH]cc(CCNC(=O)CNC(=O)CCC(=O)O[C@@H]3CC(C)=C(/C=C/C(C)=C/C=C/C(C)=C/C=C/C=C(C)/C=C/C=C(C)/C=C/C(=O)[C@]4(C)C[C@@H](OC(=O)CCC(=O)NCC(=O)NCCc5c[nH]c6ccc(OC)cc56)CC4(C)C)C(C)(C)C3)c2c1 [Compound 17, Capsanthin-dimelatonin conjugate]
PDI: 0.1650
--
COMPOUND: COc1ccc2[nH]cc(CCNC(=O)CNC(=O)CCC(=O)O[C@@H]3CC(C)=C(/C=C/C(C)=C/C=C/C(C)=C/C=C/C=C(C)/C=C/C=C(C)/C=C/C4C(C)=C[C@@H](OC(=O)CCC(=O)NCC(=O)NCCc5c[nH]c6ccc(OC)cc56)CC4(C)C)C(C)(C)C3)c2c1 (stereo partly shown) [Compound 16, Lutein-bismelatonin conjugate]
PDI: 0.1585
--
COMPOUND: CC1=C(/C=C/C(C)=C/C=C/C(C)=C/C=C/C=C(C)/C=C/C=C(C)/C=C/C2=C(C)C[C@@H](OC(=O)CCC(=O)O)CC2(C)C)C(C)(C)C[C@H](O)C1 [Compound 11, Zeaxanthin monossuccinate]
PDI: 0.0420
--
COMPOUND: COc1ccc2[nH]cc(CCNC(=O)CNC(=O)CCC(=O)O[C@@H]3CC(C)=C(/C=C/C(C)=C/C=C/C(C)=C/C=C/C=C(C)/C=C/C=C(C)/C=C/C4=C(C)CCCC4(C)C)C(C)(C)C3)c2c1 [Compound 15, Cryptoxanthin-melatonin conjugate]
PDI: 0.1649
--
COMPOUND: COc1ccc2[nH]cc(CCNC(=O)CNC(=O)CCC(=O)O[C@@H]3CC(C)=C(/C=C/C(C)=C/C=C/C(C)=C/C=C/C=C(C)/C=C/C=C(C)/C=C/C4=C(C)C[C@@H](OC(=O)CCC(=O)NCC(=O)NCCc5c[nH]c6ccc(OC)cc56)CC4(C)C)C(C)(C)C3)c2c1 [Compound 14, Zeaxanthin-bismelatonin conjugate]
PDI: 0.0147

// moving on: another record for PDI
Give the measured PDI of COc1ccc2[nH]cc(CCNC(=O)CNC(=O)CCC(=O)O[C@@H]3CC(C)=C(/C=C/C(C)=C/C=C/C(C)=C/C=C/C=C(C)/C=C/C=C(C)/C=C/C4=C(C)C[C@@H](O)CC4(C)C)C(C)(C)C3)c2c1 [Compound 13, Zeaxanthin-monomelatonin conjugate] .
0.0217

---

# PROTOCOL_SUMMARY: Water dispersibility
# Assay type: physicochemical
# APPLIED_CONDITIONS: distilled water, sonication
Water Dispersibility by entry:
Give a bare numeral; the unit mg/100 mL is implied.

MOLECULE: CC1=C(/C=C/C(C)=C/C=C/C(C)=C/C=C/C=C(C)/C=C/C=C(\C)COC(=O)CCC(=O)O)C(C)(C)CCC1 [Compound 6, 8′-Apo-β-carotenol succinate]
Water Dispersibility (mg/100 mL): 1.5

MOLECULE: CC1=C(/C=C/C(C)=C/C=C/C(C)=C/C=C/C=C(C)/C=C/C=C(C)/C=C/C2=C(C)C[C@@H](OC(=O)CCC(=O)O)CC2(C)C)C(C)(C)C[C@H](OC(=O)CCC(=O)O)C1 [Compound 7, Zeaxanthin bissuccinate]
Water Dispersibility (mg/100 mL): 1.3

Suppose we examine the molecule CC1=C[C@H](OC(=O)CCC(=O)O)CC(C)(C)[C@H]1/C=C/C(C)=C/C=C/C(C)=C/C=C/C=C(C)/C=C/C=C(C)/C=C/C1=C(C)C[C@@H](OC(=O)CCC(=O)O)CC1(C)C [Compound 10, Lutein bissuccinate] ; what Water Dispersibility value has been reported?
1.5
